What Kd was measured for each of the following?
# testSystem: T1, recombinant human CFD mutant 1 (R157A, R207A), His-tagged (human, UniProt P00746 26-253)
# T1 construct: positions are linear positions in the mature protein; also called rhCFD-mut1-His; Mut1
# T1 sequence (P00746 26-253 R182A/R232A limits assumed): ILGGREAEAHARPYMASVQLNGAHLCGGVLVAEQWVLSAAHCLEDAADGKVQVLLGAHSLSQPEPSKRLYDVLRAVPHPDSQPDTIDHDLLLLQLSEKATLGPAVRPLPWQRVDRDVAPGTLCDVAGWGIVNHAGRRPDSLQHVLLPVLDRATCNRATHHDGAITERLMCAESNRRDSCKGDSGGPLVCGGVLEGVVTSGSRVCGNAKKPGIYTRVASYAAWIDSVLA
# assayNotes: SPR MX96
Form entry: value (nM) — number only.

Bench note: what Kd did KCD065 (antibody, V domains shown) VH: QVQLQQSGAELARPGASVKMSCKASGYTFTTYTIHWVKQRPGQGLEWIGYINPSSDFTNYNQNFADKATLTADRSSSTAYMQLSSLTSEESAVYYCAIRLGYDRQGWYFDVWGAGTTVTVSS VL: DIVMTQSHKFLSTSLGDRVSITCKASQDVGSAVAWYQQKPGQSPDLLIYWTFTRHTGVPDRFTGSRSGTDFTLTISNVQSGDLADYFCQQYSNYPLTFGGGTKLEIK show?
25

# repeat for KCD212 (antibody, V domains shown) VH: EVHLVESGGDLVKPGGSLKLSCAASGFTFSRYGMSWVRQTPDKRLEWVATISSAGSYTYYPDSVKGRFTISRDNAKNTLFLQMSSLKSEDTAMYYCARPLNYYGTSSFDYWGQGTTLTVSS VL: QIVLTQSPAIMSASPGEKVTMTCRASSSVSSTYLHWYQQKPGSSPKLWIYSTSNLASGVPPRFSGSGSGTSYSLTISSVEAEDAATYYCQQYDSSPNTFGAGTKLELK
0.2

Then what about the binder KCD103 (antibody, V domains shown, chimeric) VH: QVQLQQPGAELVRPGTSVKLSCKASGYTFTSYWMHWVKQRPGQGLEWIGVIDPSDSYTKYNQKFKDKATLTVETSSSTAYMQLSSLTSEDSAVYYCAGNGYDGSMDYWGQGTSVTVSS VL: DIQMTQTTSSLSASLGDRVTISCRASQDISNSLNWYQQKPDGTVKLLIYYTSRLHSRVPSRFSGSGSGTDYSLTISNLDQEDIATYFCQQANTLPYTFGGGTKLEIK ?
2.5
